System: P388 leukemia ip, CD2F1 mice, survival T/C
runDescription: NCI In Vivo Anticancer Drug Screen. Data for tumor model P388 Leukemia (intraperitoneal) in CD2F1 (CDF1) mice
conditionParameters: endpoint: median survival time; dose: 50.0 mg/kg/injection; schedule: Q01DX005 (ip); vehicle: Klucel (hydroxypropylcellulose) (HPC); higher = longer survival
Inconclusive results and toxic doses are left out.

{"compound": "Cc1cc(C)c(OC(=O)NCCCl)c(C)c1", "T/C": "97 % of control"}
{"compound": "C[C@]12C=CC(=O)C=C1CC[C@@H]1[C@@H]2[C@@H](O)C[C@@]2(C)[C@H]1CC[C@]2(O)C(=O)CO", "T/C": "106 % of control"}
{"compound": "COC(=O)C(C)NC(=O)C(C)NC(=O)C(C)NC(C)=O (stereo unspecified)", "T/C": "102 % of control"}
{"compound": "COc1ccc(C2=C(c3ccccc3)C(C)(C)Oc3ccc4ccccc4c32)cc1", "T/C": "95 % of control"}
{"compound": "CCCCNC(=O)C(CONC(=O)OC)NC(C)=O (stereo unspecified)", "T/C": "101 % of control"}
{"compound": "O=C1C(Cl)=C(Nc2cccc3ccccc23)C(=O)C(Cl)=C1Nc1cccc2ccccc12", "T/C": "95 % of control"}

* * *

Tested on: P388 leukemia ip, CD2F1 mice, survival T/C
runDescription: NCI In Vivo Anticancer Drug Screen. Data for tumor model P388 Leukemia (intraperitoneal) in CD2F1 (CDF1) mice
conditionParameters: endpoint: median survival time; dose: 100.0 mg/kg/injection; schedule: Q01DX009 (ip); vehicle: water
Toxic doses and inconclusive results are not listed. How the source made its calls: active means survival T/C of 150% or more; inactive means T/C below 125% in these data.
Possible outcomes: active, inactive

{"molecule": "C=C(C)C(=O)OCC1CO1 (stereo unspecified)", "assignedCategory": "inactive"}
{"molecule": "COc1cc2ccc(/C=N/NC(N)=S)cc2cc1OC", "assignedCategory": "inactive"}
{"molecule": "COc1cc2cc3c4cc(OC)c(OC)cc4cc[n+]3c(C)c2cc1OC (tested in a mixture with another compound)", "assignedCategory": "active"}
{"molecule": "COc1ccc2cc3ccncc3cc2c1OC", "assignedCategory": "inactive"}
{"molecule": "O=C(O)c1c(C(=O)O)c(C(=O)O)c(C(=O)O)c(C(=O)O)c1C(=O)O", "assignedCategory": "inactive"}
{"molecule": "COP(=O)(OC)C(=[N+]=[N-])c1ccccc1", "assignedCategory": "inactive"}

* * *

System: P388 leukemia ip, CD2F1 mice, survival T/C
runDescription: NCI In Vivo Anticancer Drug Screen. Data for tumor model P388 Leukemia (intraperitoneal) in CD2F1 (CDF1) mice
conditionParameters: endpoint: median survival time; dose: 50.0 mg/kg/injection; schedule: Q01DX005 (ip); vehicle: Klucel (hydroxypropylcellulose) (HPC); higher = longer survival
Inconclusive results and toxic doses are left out.

{"molecule": "C=CC(C)(C)c1ccc(O)c(CC=C(C)C)c1", "assaySystem": "P388 leukemia ip, CD2F1 mice, survival T/C", "T/C": "102 % of control"}
{"molecule": "Cc1nc2c(cnn2C)c(=O)n1C(C)C", "assaySystem": "P388 leukemia ip, CD2F1 mice, survival T/C", "T/C": "104 % of control"}
{"molecule": "CC(=O)/C=C/C=C/c1ccc2c(c1)OC(CO)C(c1ccc(O)c(O)c1)O2 (centres undefined)", "assaySystem": "P388 leukemia ip, CD2F1 mice, survival T/C", "T/C": "95 % of control"}
{"molecule": "Cc1nc(Nc2ccc(F)cc2)c2c(-c3ccccc3)c[nH]c2n1", "assaySystem": "P388 leukemia ip, CD2F1 mice, survival T/C", "T/C": "90 % of control"}
{"molecule": "COc1cc(-c2nn(CN3CCOCC3)c(=S)o2)cc(OC)c1OC", "assaySystem": "P388 leukemia ip, CD2F1 mice, survival T/C", "T/C": "96 % of control"}
{"molecule": "C=C1C[C@@]23CC[C@@H]4[C@](C)(CC[C@H](O)[C@]4(C)COC(=O)CCC(=O)O)[C@H]2CC[C@@H]1C3", "assaySystem": "P388 leukemia ip, CD2F1 mice, survival T/C", "T/C": "101 % of control"}
{"molecule": "ONc1cnc2ccccc2n1", "assaySystem": "P388 leukemia ip, CD2F1 mice, survival T/C", "T/C": "103 % of control"}
{"molecule": "CNc1nc2c(N)ncnc2n1C1CC(O)C(CO)O1 (centres undefined)", "assaySystem": "P388 leukemia ip, CD2F1 mice, survival T/C", "T/C": "101 % of control"}
{"molecule": "CON=C1C(C)(C)C(=NOC)C1(C)C", "assaySystem": "P388 leukemia ip, CD2F1 mice, survival T/C", "T/C": "99 % of control"}

* * *

System: P388 leukemia ip, CD2F1 mice, survival T/C
runDescription: NCI In Vivo Anticancer Drug Screen. Data for tumor model P388 Leukemia (intraperitoneal) in CD2F1 (CDF1) mice
conditionParameters: endpoint: median survival time; dose: 240.0 mg/kg/injection; schedule: Q01DX005 (ip); vehicle: saline with Tween-80; higher = longer survival
Toxic doses and inconclusive results are not listed.

{"molecule": "Nc1nc(N)c2nc(-c3ccc([N+](=O)[O-])cc3)c(=O)[nH]c2n1", "T/C": "91 % of control"}
{"molecule": "O=C([CH-]C(=O)C(F)(F)F)c1ccco1.O=C([CH-]C(=O)C(F)(F)F)c1ccco1.O=C([CH-]C(=O)C(F)(F)F)c1ccco1.[Ru+3]", "T/C": "89 % of control"}
{"molecule": "Cc1cc(C)nc(NS(=O)(=O)c2ccc(NC(=O)c3cccnc3Nc3cccc(Cl)c3)cc2)n1", "T/C": "112 % of control"}
{"molecule": "CC(C)c1cccc(C(C)C)c1NC(=O)Nc1ccc(Cl)cc1Cl", "T/C": "116 % of control"}
{"molecule": "O=c1c(C(=Nc2ccccc2)c2ccccc2)c[nH]n1-c1ccccc1", "T/C": "105 % of control"}
{"molecule": "CC(=O)Oc1ccc(C2COc3cc(OC(C)=O)c(OC(C)=O)cc3C2)cc1 (stereo not given)", "T/C": "104 % of control"}
{"molecule": "CSC1=NC=C(C#N)C2=NC(c3ccc(Cl)cc3)NN12 (stereo not given)", "T/C": "94 % of control"}
{"molecule": "CCc1ccccc1NC(=O)C(=O)CC(=O)C1=C(C)Nc2ccccc2S1", "T/C": "99 % of control"}
{"molecule": "Nc1ccccc1C(=O)CCc1ccccc1", "T/C": "97 % of control"}
{"molecule": "c1ccc(N=Nc2ccc3ns[s+]c3c2)cc1", "T/C": "103 % of control"}
{"molecule": "Cn1c(=S)[nH]c2sc3c(c2c1=O)CCCCC3", "T/C": "90 % of control"}
{"molecule": "CCOC(=O)C1=NN(c2ccccc2)C(C(=O)OC)[C@@H]1C(=O)OC (stereo not given in full)", "T/C": "96 % of control"}
{"molecule": "CC1=CCC2C(=O)N(c3cc(C)on3)C(=O)C2C1 (stereo not given)", "T/C": "90 % of control"}
{"molecule": "O=C1NC(=O)C2(N1)C1CCCC2C(c2ccccc2)NC1c1ccccc1 (stereo not given)", "T/C": "90 % of control"}
{"molecule": "COc1ccc(-c2cn3c([nH]c(=O)c4cc(Br)ccc43)c2C#N)cc1", "T/C": "87 % of control"}
{"molecule": "Cc1[nH]n(-c2ccc(S(=O)(=O)O)cc2)c(=O)c1N=Nc1ccccc1", "T/C": "90 % of control"}
{"molecule": "Oc1cc2c(cc1C(Nc1ncccn1)c1ccc(F)cc1)OCO2 (stereo not given)", "T/C": "92 % of control"}
{"molecule": "Cn1c(=O)c2[nH]c(C(C)(C)O)nc2n(C)c1=O", "T/C": "101 % of control"}
{"molecule": "COc1cc(C2C(C)=C(C)Oc3cc4c(cc32)OCO4)cc(OC)c1OC (stereo not given)", "T/C": "88 % of control"}
{"molecule": "COc1cc(C2c3cc4c(cc3OC3(O)COC(=O)C23)OCO4)cc(OC)c1OC (stereo not given)", "T/C": "86 % of control"}
{"molecule": "Cc1ccc(C(O)c2cnc(C)n2Cc2ccccc2)cc1 (stereo not given)", "T/C": "92 % of control"}
{"molecule": "CCOc1ccncc1[N+](=O)[O-]", "T/C": "95 % of control"}
{"molecule": "N[C@@H](Cc1ccccc1)C(=O)NCCNC(=O)[C@@H](N)Cc1ccccc1", "T/C": "104 % of control"}
{"molecule": "N#C/C(=C\\Nc1ccccn1)C(=O)c1ccccc1", "T/C": "91 % of control"}
{"molecule": "O=C(O)COC1CC(=O)N2c3ccccc3C34CCN5C(=O)C(=O)C(CC53)C1C24 (stereo not given)", "T/C": "88 % of control"}
{"molecule": "Cc1cc(C(=O)CSC(=S)SC(C)(C)C)ccc1Cl", "T/C": "90 % of control"}
{"molecule": "N#Cc1c(Cl)c(Cc2ccccc2)c(Cl)n2c1nc1ccccc12", "T/C": "99 % of control"}
{"molecule": "O=c1c(-c2cccc(O)c2O)coc2cc(OC3OC(CO)C(O)C(O)C3O)ccc12 (stereo not given)", "T/C": "97 % of control"}
{"molecule": "CN(C)CCOc1ccc(/C=C2\\CCc3ccccc3C2=O)cc1", "T/C": "95 % of control"}
{"molecule": "Cc1cccc(C)c1NC(=O)C(=O)C(C#N)c1c(Cl)cccc1Cl (stereo not given)", "T/C": "104 % of control"}
{"molecule": "COc1ccc2c(c1)C(=O)C[C@@H]1[C@](C)(C#N)CCC[C@]21C", "T/C": "94 % of control"}
{"molecule": "CC(C)NC(=O)OCc1c(COC(=O)NC(C)C)c2cccn2c2c1cnn2-c1ccccc1", "T/C": "96 % of control"}
{"molecule": "Nc1nnc(-c2ccc[n+]([O-])c2)o1", "T/C": "105 % of control"}
{"molecule": "COC(=O)Cc1ccccc1-n1nccc1S(C)=O (stereo not given)", "T/C": "106 % of control"}
{"molecule": "Cc1cn(CCCn2cnc3c(N)ncnc32)c(=O)[nH]c1=O", "T/C": "107 % of control"}
{"molecule": "CCOC(=O)c1c(C)cc2ccccn12", "T/C": "105 % of control"}
{"molecule": "NN1C(=O)CC(c2cccc(Cl)c2)C1=O (stereo not given)", "T/C": "92 % of control"}
{"molecule": "O=c1c2ccccc2[nH]c2cc3c(=O)n4ccccc4nc3cc12", "T/C": "93 % of control"}
{"molecule": "NC(=S)NNCCC(=O)Nc1ccccc1C(F)(F)F", "T/C": "96 % of control"}
{"molecule": "CC(C)(C)/[N+]([O-])=C/C(c1ccccc1)C(/C=[N+](/[O-])C(C)(C)C)c1ccccc1 (stereo not given)", "T/C": "98 % of control"}
{"molecule": "O=[N+]([O-])c1cc(I)c(O)c(/C=N/NS(=O)(=O)c2ccc(F)cc2)c1", "T/C": "101 % of control"}
{"molecule": "CC1(c2ccccc2)OC(=O)C=CC1=O (stereo not given)", "T/C": "108 % of control"}
{"molecule": "CCC#CC(=O)OCC", "T/C": "121 % of control"}
{"molecule": "CC(C)CC(N)C(=O)NC(CC(C)C)P(=O)(O)O (stereo not given)", "T/C": "104 % of control"}
{"molecule": "COC(=O)c1nc2[nH]n(-c3ccccc3)c(=O)c2c(C(=O)OC)c1C(C)C(=O)c1ccc(Cl)cc1 (stereo not given)", "T/C": "98 % of control"}

These entries and their values trace back to PubChem BioAssay AID330.
